# TGT: CYP1A2 (Homo sapiens)
# Sequence (P05177 whole entry): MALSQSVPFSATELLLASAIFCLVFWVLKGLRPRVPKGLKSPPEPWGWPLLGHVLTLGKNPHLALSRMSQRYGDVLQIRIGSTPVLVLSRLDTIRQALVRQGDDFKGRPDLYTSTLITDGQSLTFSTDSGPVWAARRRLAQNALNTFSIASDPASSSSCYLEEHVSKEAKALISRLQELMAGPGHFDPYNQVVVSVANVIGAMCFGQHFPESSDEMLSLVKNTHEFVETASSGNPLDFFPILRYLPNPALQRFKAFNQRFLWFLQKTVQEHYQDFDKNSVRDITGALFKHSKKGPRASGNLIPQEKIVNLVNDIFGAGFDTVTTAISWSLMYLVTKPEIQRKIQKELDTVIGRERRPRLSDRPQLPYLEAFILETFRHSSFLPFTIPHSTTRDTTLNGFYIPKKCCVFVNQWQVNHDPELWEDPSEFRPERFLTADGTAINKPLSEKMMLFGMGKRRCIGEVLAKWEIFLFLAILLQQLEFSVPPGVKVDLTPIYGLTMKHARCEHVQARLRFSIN
# PROTOCOL DESCRIPTION: Inhibition of CYP1A2 (unknown origin) at 10 uM relative to control
# Assay type: ADME
Below, each of the compounds is paired with its reported inhibition at 10 µM value.

COMPOUND STRUCTURE	inhibition at 10 µM
Cc1cc(OCC(=O)O)cc(C)c1Cc1ccc(N)cc1	< 50%
NCCOc1ccc(Cc2ccc(N)cc2)c(C(F)(F)F)c1	> 91%
CCNc1ccc(Cc2c(C)cc(OCC(=O)O)cc2C)cc1C(C)C	51%
Cc1cc(OCCN)cc(C)c1Cc1ccc(O)cc1	51%
CC(=O)Nc1ccc(Cc2ccc(OCC(=O)O)cc2)cc1C(C)C	< 50%
Cc1cc(OCC(=O)O)cc(C)c1Cc1ccc(N)c(C(C)C)c1	< 50%
CC(C)c1cc(Cc2ccc(OCC(=O)O)cc2)ccc1N	< 50%
CC(=O)Nc1ccc(Cc2c(C)cc(OCC(=O)O)cc2C)cc1C(C)C	< 50%
CCNc1ccc(Cc2ccc(OCC(=O)O)cc2)cc1C(C)C	> 91%
Cc1cc(OCC(=O)O)cc(C)c1Cc1ccc(O)cc1	< 50%
Nc1ccc(Cc2ccc(OCC(=O)O)cc2F)cc1	< 50%

Reference source: ChEMBL document CHEMBL4680157
